The reader will find reported protein stability index values listed item by item below.
B1: ZNF263 (parent)
chain: QRTHTGEKPYKCPECGEIFAHSSN

Variants of: B1
ASSAY REMARKS: protein stability index of a GFP-peptide fusion (GPS, HEK-293T) (PSI 1-6); higher = more stable;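 further: lentivirally expressed fusions sorted by FACS into six bins by GFP to DsRed ratio, PSI derived from sequencing read proportions per bin multiplied by bin number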
TEST PARAMETERS: c terminus: a fixed tail appended

MACROMOLECULE SEQUENCE | protein stability index
QRTHTGEKPYKCPECGEIFAISSN [H21I] | 2.05
QRTHTGEKPYKCPECWEIFAHSSN [G16W] | 2.64
QRTHTGEKPYKCPECGQIFAHSSN [E17Q] | 3.86
QRTHTGEKPYKCPECGTIFAHSSN [E17T] | 4.77
QRTHTGEKPYKCPECGRIFAHSSN [E17R] | 3.38
QRTHTGEHPYKCPECGEIFAHSSN [K8H] | 3.35
QRTHTGEKPYKRPECGEIFAHSSN [C12R] | 4.2
QRTHTGEKPYKCPECGEIFATSSN [H21T] | 3.15
QRTHTGEKPYKCPECGEWFAHSSN [I18W] | 2.41
QRTHTGEKPYSCPECGEIFAHSSN [K11S] | 3.83
QRTHTGEKPYKCPECGSIFAHSSN [E17S] | 4.02
QRTHTGEKPYKYPECGEIFAHSSN [C12Y] | 4.3
QRSHTGEKPYKCPECGEIFAHSSN [T3S] | 3.43
QRTHTGEKPYKCPECGERFAHSSN [I18R] | 3
QRTHTGEKPYKCPECGEIFAHSSH [N24H] | 3.49
QRTHTGEKPYKCPCCGEIFAHSSN [E14C] | 3.71
QRTHTGEKPLKCPECGEIFAHSSN [Y10L] | 3.55
QRTHTGEKPYKCPECGEIFAHSFN [S23F] | 2.81
QRTHHGEKPYKCPECGEIFAHSSN [T5H] | 3.75
QRTHTGEKPYKVPECGEIFAHSSN [C12V] | 3.31
QRTHTGEIPYKCPECGEIFAHSSN [K8I] | 2.66
QRTHTDEKPYKCPECGEIFAHSSN [G6D] | 3.23
